- target: furin, P09958;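 also: purified furin at 1:10 enzyme:substrate in 50 mM HEPES pH 7.5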
- Sequence (P09958 whole entry): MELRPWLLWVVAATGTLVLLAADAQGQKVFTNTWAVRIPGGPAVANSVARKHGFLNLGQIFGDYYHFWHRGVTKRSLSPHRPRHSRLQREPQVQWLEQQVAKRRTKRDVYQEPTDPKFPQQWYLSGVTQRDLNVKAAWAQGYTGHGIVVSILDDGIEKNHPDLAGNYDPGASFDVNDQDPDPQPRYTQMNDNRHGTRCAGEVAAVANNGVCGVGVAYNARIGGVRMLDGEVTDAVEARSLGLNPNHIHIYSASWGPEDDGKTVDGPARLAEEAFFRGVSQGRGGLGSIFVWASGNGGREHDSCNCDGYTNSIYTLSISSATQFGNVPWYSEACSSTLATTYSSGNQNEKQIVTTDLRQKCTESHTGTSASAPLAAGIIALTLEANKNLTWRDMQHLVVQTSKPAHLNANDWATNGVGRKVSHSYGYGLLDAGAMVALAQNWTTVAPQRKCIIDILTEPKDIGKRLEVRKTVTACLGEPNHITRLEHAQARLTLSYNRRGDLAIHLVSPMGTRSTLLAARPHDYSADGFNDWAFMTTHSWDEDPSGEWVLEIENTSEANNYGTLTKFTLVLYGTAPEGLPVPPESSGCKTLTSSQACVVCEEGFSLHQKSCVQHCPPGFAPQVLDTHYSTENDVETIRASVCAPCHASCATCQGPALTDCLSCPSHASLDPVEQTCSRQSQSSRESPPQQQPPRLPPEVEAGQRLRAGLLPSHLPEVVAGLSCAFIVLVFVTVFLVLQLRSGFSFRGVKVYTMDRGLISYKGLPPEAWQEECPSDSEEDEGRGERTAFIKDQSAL
- run description: furin cleavage Z-score vs untreated control; higher = more cleavage, active = 3.5 or more, inactive = 1 or less, 8 variable residues between constant flanks
- run conditions: 30 min
The other results are listed elsewhere or left out. No count for the full screen is at hand.
Outcome: criterion met for furin cleavage Z-score of at least 2; criterion not met for anything lower.

Below, 5 sequences whose answers are already recorded.
| sequence data | assigned class |
| --- | --- |
| CARDQRDKDGAGNASASA [FS-2412] | criterion not met |
| CAHSSRPVRDAGNASASA [FS-1594] | criterion met |
| CARGLRSIMEAGNASASA [FS-1709] | criterion not met |
| CARRQRRVPGAGNASASA [FS-3060] | criterion met |
| CARKRRSKSRAGNASASA [FS-2272] | criterion met |

Now look at this entry.
# bool: furin cleavage Z-score of CAAPNYTFALAGNASASA [HC1198] >= 2
criterion not met
